This collection of values is drawn from ChEMBL document CHEMBL3301361.

test: physchem; settings: octan-1-ol/water, pH 7.4, LogD7.4
# if value of logD reaches 2, tag Criterion met; if it stays below, tag Criterion not met

Ask: Determine whether this compound has logD no lower than 2: COc1ccc(-c2cc(=O)c3ccccc3[nH]2)cc1
Result: Criterion met

Ask: Determine whether this compound has logD no lower than 2: Cn1c(C#N)ccc1-c1cc(F)c2c(c1)C(C)(C)C(=O)N2
Result: Criterion met

Ask: Determine whether this compound has logD no lower than 2: Nc1nc(CCc2cccc(Br)c2)cc(=O)[nH]1
Result: Criterion met

Ask: Determine whether this compound has logD no lower than 2: CC(=O)N[C@H](C)c1ccc(Nc2ncc3cc(-c4ccncc4)ccc3n2)cc1
Result: Criterion met

Ask: Determine whether this compound has logD no lower than 2: CC[C@@H]1COCCN1c1cc(C2(S(C)(=O)=O)CC2)nc(-c2cccc3[nH]ccc23)n1
Result: Criterion met

Ask: Determine whether this compound has logD no lower than 2: O=C(N[C@@H](Cc1ccc(CCCCNc2ccccn2)cc1)C(=O)O)c1c(Cl)cccc1Cl
Result: Criterion not met

Ask: Determine whether this compound has logD no lower than 2: Nc1cccc2c1C(=O)N(Cc1cccc(Cl)c1)C2=O
Result: Criterion met

Ask: Determine whether this compound has logD no lower than 2: Cc1ccc(-c2ccc3c(ccc4sc5c(c43)NC[C@@H](C)NC5=O)n2)cn1
Result: Criterion met

Ask: Determine whether this compound has logD no lower than 2: Cc1ccccc1N1C(=O)c2cc(S(N)(=O)=O)c(Cl)cc2NC1C (stereo unspecified)
Result: Criterion not met

Ask: Determine whether this compound has logD no lower than 2: c1nc(N2CCCCC2)c2nc[nH]c2n1
Result: Criterion not met

Ask: Determine whether this compound has logD no lower than 2: O=C(O)C[C@@H]1c2ccccc2C[C@H]1NC(=O)c1cc2sc(Cl)c(Cl)c2[nH]1
Result: Criterion met

Ask: Determine whether this compound has logD no lower than 2: CC1(c2ccccc2)CC(=O)NC(N)=N1 (stereo unspecified)
Result: Criterion not met

Ask: Determine whether this compound has logD no lower than 2: O=C(O)c1ccc(-c2ccc(Cl)c(C(=O)NCC34CC5CC(CC(C5)C3)C4)c2)cc1
Result: Criterion met

Ask: Determine whether this compound has logD no lower than 2: CC1(C)Cc2c(-c3ccccc3)c(-c3ccc(Cl)cc3)c(CC(=O)O)n2C1
Result: Criterion met

Ask: Determine whether this compound has logD no lower than 2: CN[C@@H](C)C(=O)N[C@H](C(=O)N[C@H]1CCN(Cc2ccccc2)C1)C1CCCCC1
Result: Criterion not met

Ask: Determine whether this compound has logD no lower than 2: Cn1sc(NC(=O)c2ccccc2)nc1=O
Result: Criterion not met

Ask: Determine whether this compound has logD no lower than 2: Cn1cc(C#N)cc1-c1c2c(=O)n(CCO)c(=O)n(CC3CC3)c2nn1Cc1ccnc2ccc(Cl)cc12
Result: Criterion met

Ask: Determine whether this compound has logD no lower than 2: CC(C)Cn1c(=O)n(C)c(=O)c2c(-c3cncn3C)n(Cc3cccc4ccccc34)nc21
Result: Criterion met

Ask: Determine whether this compound has logD no lower than 2: O=c1[nH]c2c(O)ccc([C@@H](O)CNCCCOCCOCCc3cccc4ccccc34)c2s1
Result: Criterion met

Ask: Determine whether this compound has logD no lower than 2: N#Cc1ccc(C(=O)N2CCC3(CC2)N=C(N)c2c(F)cccc2N3)cc1
Result: Criterion not met

Ask: Determine whether this compound has logD no lower than 2: N#Cc1ccc(S(=O)(=O)NCC(c2ccccc2)N2CCCCCC2)cc1 (stereo unspecified)
Result: Criterion met
